Molecular target: FPTase (K-Ras substrate) (UniProt P29702+P49355)
Experiment: in vitro FTase Inhibition Assay, K-Ras as substrate for farnesylation
Conditions: K-Ras used as substrate for farnesylation
Description: The ability of the compounds of this invention to inhibit FPTase was evaluated in the standard pharmacological in vitro test procedures described below. Methods—1. […] 2. Solution #1 is added to FPTase reaction in a volume of […]. 3. Standard reaction mix, […], contains 50 mM Tris (7.5), […], 3 mM MgCl2, 20 mM KCl, 5 mM DTT, 0.2% octyl-B-glucoside, 1% DMSO, […], 10 ng FPTase, and various concentrations of FPTase inhibitors. 4. Incubate for 30-90 min at 250° C. 5. […]
Listed below: IC50 values for each entry.

# compound, property, result
rows = [
    ("COC(=O)Nc1ccc(C)c(C#CCCCC2(S(=O)(=O)c3ccc(OC)cc3)SC(=O)N(C(=O)OC)C2=O)c1 (centres unmarked) [Example 228]", "IC50", "230 to 1000 nM"),
    ("COc1ccc(S(=O)(=O)C2(CCCC#Cc3ccc(Cl)cc3C)SC(=O)NC2=O)cc1 (centres unmarked) [Example 142]", "IC50", "40 to 1000 nM"),
    ("COc1ccc(S(=O)(=O)C2(CCCC#Cc3ccc(NC(=O)OC(C)(C)C)cc3C(F)(F)F)SC(=O)NC2=O)cc1 (centres unmarked) [Example 151]", "IC50", "210 to 1000 nM"),
    ("COc1ccc(S(=O)(=O)C2(CCCC#Cc3ccc(C#N)cc3)SC(=O)NC2=O)cc1 (centres unmarked) [Example 158]", "IC50", "3800 nM"),
    ("COc1ccc(S(=O)(=O)C2(CCCC#Cc3ccc(Cl)cc3Cl)SC(=O)NC2=O)cc1 (centres unmarked) [Example 117]", "IC50", "510 to 1000 nM"),
]

Here is another compound to look at.
Supply IC50 value. Item: COc1ccc(S(=O)(=O)C2(CCCC#Cc3cc(NC(=O)OC(C)(C)C)ccc3C)SC(=O)NC2=O)cc1 (single isomer, unassigned; less polar) [Example 222]
33 nM

Where do the numbers come from? From patent US6784184B2.
